tested on: A549 NSCLC; test: NCI tumour cell line growth inhibition, 384-well format
Observation type: TGI (µM)

>>> reported_value("O=C(NC[C@H](O)CO)c1ccncc1Nc1ccc(I)cc1F")
18.8
>>> reported_value("CCOc1cc2ncc(C#N)c(Nc3ccc(OCc4ccccn4)c(Cl)c3)c2cc1NC(=O)/C=C/CN(C)C")
1.74

---

system: SNB-19 CNS; experiment: NCI tumour cell line growth inhibition, 384-well format; in the data active means GI50 below about 0.43 µM; inactive means the rest
Possible outcomes: t = active, f = inactive

>>> assigned_class("Nc1nc(Nc2ccc(C3CCC(N4CCOCC4)CC3)cc2)nn1-c1ccccn1 (centres undefined)")
"f"
>>> assigned_class("O=C(NC[C@H](O)CO)c1ccncc1Nc1ccc(I)cc1F")
"f"
>>> assigned_class("COc1cc(C(=O)NC2CCN(C)CC2)c(F)cc1Nc1ncc2c(n1)N(C1CCCC1)CC(F)(F)C(=O)N2C")
"t"
>>> assigned_class("NC(=S)N/N=C/c1ncccc1N")
"f"

---

system: HCT-15 colon; assay: NCI tumour cell line growth inhibition, 384-well format; in the data active = GI50 below about 0.43 µM; inactive = the rest
Possible outcomes: active, inactive

>>> assigned_class("CCOc1cc2ncc(C#N)c(Nc3ccc(OCc4ccccn4)c(Cl)c3)c2cc1NC(=O)/C=C/CN(C)C")
"active"
>>> assigned_class("Nc1nc(Nc2ccc(C3CCC(N4CCOCC4)CC3)cc2)nn1-c1ccccn1 (centres undefined)")
"inactive"
>>> assigned_class("O=C(NC[C@H](O)CO)c1ccncc1Nc1ccc(I)cc1F")
"inactive"
>>> assigned_class("COc1cc(C(=O)NC2CCN(C)CC2)c(F)cc1Nc1ncc2c(n1)N(C1CCCC1)CC(F)(F)C(=O)N2C")
"active"

---

In this section, each of the compounds is paired with its reported TGI.
tested on: NCI/ADR-RES ovarian; assay: NCI tumour cell line growth inhibition, 384-well format
Observation type: TGI (µM)

>>> reported_value("NC(=S)N/N=C/c1ncccc1N")
3.04
>>> reported_value("COc1cc(C(=O)NC2CCN(C)CC2)c(F)cc1Nc1ncc2c(n1)N(C1CCCC1)CC(F)(F)C(=O)N2C")
0.206

---

In this section, each of the molecules is paired with its reported TGI.
test system: MCF7 breast; assay: NCI tumour cell line growth inhibition, 384-well format
Observation type: TGI (nM)

>>> reported_value("COc1cc(C(=O)NC2CCN(C)CC2)c(F)cc1Nc1ncc2c(n1)N(C1CCCC1)CC(F)(F)C(=O)N2C")
1510
>>> reported_value("CCOc1cc2ncc(C#N)c(Nc3ccc(OCc4ccccn4)c(Cl)c3)c2cc1NC(=O)/C=C/CN(C)C")
2100

---

test system: SN12C renal; assay: NCI tumour cell line growth inhibition, 384-well format; in the data active means GI50 below about 0.43 µM; inactive means the rest
Possible outcomes: yes (1) (active), no (0) (inactive)

>>> assigned_class("Cc1c2c(nn1C)CSCc1cc(n(C)n1)CSc1cc(c3ccccc3c1)OCCCc1c(C(=O)O)n(C)c3c-2c(Cl)ccc13")
"no (0)"
>>> assigned_class("COc1cc(C(=O)NC2CCN(C)CC2)c(F)cc1Nc1ncc2c(n1)N(C1CCCC1)CC(F)(F)C(=O)N2C")
"yes (1)"
>>> assigned_class("CCOc1cc2ncc(C#N)c(Nc3ccc(OCc4ccccn4)c(Cl)c3)c2cc1NC(=O)/C=C/CN(C)C")
"yes (1)"
>>> assigned_class("CCOc1ccccc1N=Nc1c(C)[nH]n(-c2nc(-c3ccccc3)cs2)c1=O")
"no (0)"

---

tested on: M14 melanoma; test: NCI tumour cell line growth inhibition, 384-well format
Observation type: TGI (µM)

>>> reported_value("Nc1nc(Nc2ccc(C3CCC(N4CCOCC4)CC3)cc2)nn1-c1ccccn1 (centres undefined)")
3.89
>>> reported_value("CCOc1cc2ncc(C#N)c(Nc3ccc(OCc4ccccn4)c(Cl)c3)c2cc1NC(=O)/C=C/CN(C)C")
1.18
>>> reported_value("Cc1c2c(nn1C)CSCc1cc(n(C)n1)CSc1cc(c3ccccc3c1)OCCCc1c(C(=O)O)n(C)c3c-2c(Cl)ccc13")
8.79

---

In this section, each of the compounds is paired with its reported GI50.
tested on: HS 578T breast; experiment: NCI tumour cell line growth inhibition, 384-well format
Observation type: GI50

>>> reported_value("NC(=S)N/N=C/c1ncccc1N")
"654 nM"
>>> reported_value("CCOc1ccccc1N=Nc1c(C)[nH]n(-c2nc(-c3ccccc3)cs2)c1=O")
"> 100000 nM"
>>> reported_value("O=C(NC[C@H](O)CO)c1ccncc1Nc1ccc(I)cc1F")
"16000 nM"
>>> reported_value("Nc1nc(Nc2ccc(C3CCC(N4CCOCC4)CC3)cc2)nn1-c1ccccn1 (centres undefined)")
"1890 nM"
